These data points were gathered from patent US8791138B2.

- assay_system: cloned dopamine D3 receptors (Homo sapiens, UniProt P35462)
- Sequence (P35462 whole entry): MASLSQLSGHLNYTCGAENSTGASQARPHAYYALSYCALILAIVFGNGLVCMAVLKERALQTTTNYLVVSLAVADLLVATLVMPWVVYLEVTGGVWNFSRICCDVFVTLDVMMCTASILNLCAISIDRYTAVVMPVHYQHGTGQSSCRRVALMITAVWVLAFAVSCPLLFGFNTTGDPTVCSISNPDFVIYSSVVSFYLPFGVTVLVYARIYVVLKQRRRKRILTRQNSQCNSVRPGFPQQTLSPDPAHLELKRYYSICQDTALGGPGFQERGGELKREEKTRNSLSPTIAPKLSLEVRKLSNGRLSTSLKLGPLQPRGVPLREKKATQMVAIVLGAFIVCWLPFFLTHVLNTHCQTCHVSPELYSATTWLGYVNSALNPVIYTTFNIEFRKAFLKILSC
endpoint: Kd (nM)

CCN1CCC[C@H]1CNC(=O)c1c(O)c(Cl)cc(Cl)c1OC (racemic) [[^3H]raclopride] :: 1.6
